Procedure summary: Assay for determination of apparent permeability (Papp), bi-directional transport
Test parameters: pig, LLC-PK1
Field: label. Allowed values: Met (Papp at 3 h, 1 μM < 30 ×10⁻⁶ cm/s) or Not met (Papp at 3 h, 1 μM >= 30 ×10⁻⁶ cm/s).

Record `COc1ccc(CO[C@H]([C@H]2O[C@@H]3SC(N(C)C)=N[C@@H]3[C@@H](O)[C@@H]2O)C(F)(F)F)cc1C(F)(F)F` : is its Papp at 3 h, 1 μM strictly below 30 ×10⁻⁶ cm/s?
Met

###

Known Ki of a selection of compounds
System: UniProt O60502
Sequence (O60502 whole entry): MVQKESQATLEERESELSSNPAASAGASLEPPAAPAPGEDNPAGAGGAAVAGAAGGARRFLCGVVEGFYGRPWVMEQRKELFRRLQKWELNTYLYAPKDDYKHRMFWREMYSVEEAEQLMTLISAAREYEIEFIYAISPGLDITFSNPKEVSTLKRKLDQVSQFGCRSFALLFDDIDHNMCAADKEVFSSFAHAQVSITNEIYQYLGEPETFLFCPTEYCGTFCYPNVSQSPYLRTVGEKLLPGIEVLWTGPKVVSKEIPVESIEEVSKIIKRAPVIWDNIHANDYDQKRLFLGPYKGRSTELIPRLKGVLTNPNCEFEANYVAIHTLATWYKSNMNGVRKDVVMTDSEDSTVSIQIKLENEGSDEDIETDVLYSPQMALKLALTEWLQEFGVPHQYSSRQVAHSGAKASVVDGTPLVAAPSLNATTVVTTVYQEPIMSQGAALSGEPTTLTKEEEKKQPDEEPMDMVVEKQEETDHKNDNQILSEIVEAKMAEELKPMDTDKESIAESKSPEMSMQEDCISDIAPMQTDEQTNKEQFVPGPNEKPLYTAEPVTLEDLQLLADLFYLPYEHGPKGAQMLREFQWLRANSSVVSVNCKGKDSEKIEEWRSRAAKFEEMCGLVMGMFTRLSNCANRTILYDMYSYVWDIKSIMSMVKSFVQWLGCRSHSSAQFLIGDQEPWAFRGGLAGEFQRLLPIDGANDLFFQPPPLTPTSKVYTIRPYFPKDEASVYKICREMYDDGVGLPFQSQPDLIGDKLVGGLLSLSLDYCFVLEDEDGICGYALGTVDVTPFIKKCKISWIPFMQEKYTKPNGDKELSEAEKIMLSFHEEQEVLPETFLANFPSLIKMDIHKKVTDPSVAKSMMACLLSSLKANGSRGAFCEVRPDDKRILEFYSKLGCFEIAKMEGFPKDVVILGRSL
Procedure summary: biochemical
Format: biochemical
Test parameters: purified human O-GlcNAcase 0.7 nM, pH 7.0, room temperature, Cheng-Prusoff; read-out: OGA KI
Remember to quote the unit after the number.

Previously resolved entries follow.
COc1ccc(CO[C@H]([C@H]2O[C@@H]3SC(N(C)C)=N[C@@H]3[C@@H](O)[C@@H]2O)C(F)(F)F)cc1 = 1.38 nM
CN(C)C1=N[C@@H]2[C@@H](O)[C@H](O)[C@@H]([C@@H](OCc3ccccc3)C(F)(F)F)O[C@@H]2S1 = 2.43 nM
CCNC1=N[C@@H]2[C@@H](O)[C@H](O)[C@@H]([C@@H](OCc3ccc(OC)cc3)C(F)(F)F)O[C@@H]2S1 = 12.5 nM
CCCO[C@H]([C@H]1O[C@@H]2SC(NC)=N[C@@H]2[C@@H](O)[C@@H]1O)C(F)(F)F = 3.77 nM
CN(C)C1=N[C@@H]2[C@@H](O)[C@H](O)[C@@H]([C@@H](N(C)C)C(F)(F)F)O[C@@H]2S1 = 41.9 nM

Next item in the queue.
Would you kindly share the measured Ki for `CNC1=N[C@@H]2[C@@H](O)[C@H](O)[C@@H]([C@@H](OCc3ccc(F)cc3)C(F)(F)F)O[C@@H]2S1` ?
1.44 nM
